# EXPERIMENTAL TARGET: plasma kallikrein (PK) (UniProt P03952 20-390; P03952 391-638)
# Sequence (P03952 20-390, chain 1 of 2): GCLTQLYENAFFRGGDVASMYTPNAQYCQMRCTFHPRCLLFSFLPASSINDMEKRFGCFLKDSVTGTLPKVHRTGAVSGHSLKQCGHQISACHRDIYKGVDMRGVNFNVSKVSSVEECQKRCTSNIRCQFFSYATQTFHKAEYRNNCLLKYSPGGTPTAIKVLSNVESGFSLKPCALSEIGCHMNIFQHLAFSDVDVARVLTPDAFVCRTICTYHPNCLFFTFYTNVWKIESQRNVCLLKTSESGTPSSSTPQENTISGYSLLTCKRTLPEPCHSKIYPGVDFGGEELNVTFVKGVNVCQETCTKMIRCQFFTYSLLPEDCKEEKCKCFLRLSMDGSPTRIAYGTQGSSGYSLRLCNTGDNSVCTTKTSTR
# Sequence (P03952 391-638, chain 2 of 2): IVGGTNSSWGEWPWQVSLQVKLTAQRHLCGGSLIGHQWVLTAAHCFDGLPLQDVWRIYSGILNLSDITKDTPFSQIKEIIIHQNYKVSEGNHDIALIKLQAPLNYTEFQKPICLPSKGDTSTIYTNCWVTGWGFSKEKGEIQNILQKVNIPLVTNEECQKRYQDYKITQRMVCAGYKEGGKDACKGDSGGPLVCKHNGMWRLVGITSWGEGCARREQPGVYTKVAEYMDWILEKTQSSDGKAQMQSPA
# EXPERIMENT NOTES: chromogenic enzyme inhibition assay
READOUT LABEL: Ki (µM)
Report the figure in µM without appending any unit label.

input: Fill in the blank: the reported Ki of LSEEPE [oligopeptide LE6 (Leu-Ser-Glu-Glu-Pro-Glu)] is ____.
output: 44
